B1: NELF-E aptamer (parent)
chain: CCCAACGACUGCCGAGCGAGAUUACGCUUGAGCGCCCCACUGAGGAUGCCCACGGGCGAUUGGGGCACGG

Variants of: B1
PROTOCOL: HiTS-RAP
STATED_CONDITIONS: with NELF-E (Drosophila)
MEASUREMENT_KIND: Kd (nM)

MUTATIONS | ASSAY_VALUE
C6G G44U | 8.75
G11U G64A | 9.29
A19U U23G | 6.66
A5G U60C | 11.3
U29G C50U | 15.4
A5U C6A | 7.45
U10G C36A | 9.48
C9G C57U | 7.56
A19G G34A | 6.47
U23G U60A | 12.9
G7A G63A | 14.4
A8U G16U | 7.54
U10G G63U | 10.9
C12G A39G | 10.3
G34C | 9.79
U10A G14U | 6.38
A8G C57U | 6
